Reported values of GCGR (EC50, nM), CRE-luciferase in HEK-293 cells for individual entries
# Experimental System: human glucagon receptor (human, UniProt P47871 26-477)
# Protocol Notes: cell-based or functional assay
Non-standard residues stand in square brackets, D forms with d. Groups on a side chain read outwards from the residue. Primed or numbered codes have the meaning given here. No end group written: not given here. *: point of attachment. C18 diacid = O=C(O)CCCCCCCCCCCCCCCCC(=O)*; Palmitoyl = CCCCCCCCCCCCCCCC(=O)*; PEG2′ = not defined here; Aib = CC(C)(N)C(=O)O
Measured Metric: GCGR (EC50, nM), CRE-luciferase in HEK-293 cells

[[record]]
binder = "H[dS]QGTFTSDYSKYLD[Aib]K([PEG2′-PEG2′-Glu-C18 diacid])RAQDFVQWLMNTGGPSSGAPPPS-NH2 [Compound 14]"
result = "0.19 nM"

[[record]]
binder = "H[dS]QGTFTSDYSKYLDK([PEG2′-PEG2′-Glu-Palmitoyl])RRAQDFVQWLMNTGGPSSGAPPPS-NH2 [Compound 10]"
result = "0.11 nM"

[[record]]
binder = "H[dS]QGTFTSDYSK([PEG2′-PEG2′-Glu-Palmitoyl])KLD[Aib]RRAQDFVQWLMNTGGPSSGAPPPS-NH2 [Compound 17]"
result = "0.58 nM"

[[record]]
binder = "H[Aib]QGTFTSDK([PEG2′-PEG2′-Glu-C18 diacid])SKYLDERRAQDFVQWLLDGGPSSGAPPPS-NH2 [Compound 20]"
result = "0.48 nM"

[[record]]
binder = "H[dS]QGTFTSDYSKYLDK([PEG2′-PEG2′-C18 diacid])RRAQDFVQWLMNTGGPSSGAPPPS-NH2 [Compound 9]"
result = "0.18 nM"

[[record]]
binder = "H[dS]QGTFTSDYSKYLD[Aib]K([PEG2′-PEG2′-Glu-Palmitoyl])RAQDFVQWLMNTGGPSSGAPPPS-NH2 [Compound 13]"
result = "0.16 nM"

[[record]]
binder = "H[Aib]QGTFTSDK([PEG2′-PEG2′-Glu-Palmitoyl])SKYLDERRAQDFVQWLLDGGPSSGAPPPS-NH2 [Compound 19]"
result = "0.56 nM"

[[record]]
binder = "H[dS]QGTFTSDYSKYLDSK([PEG2′-PEG2′-Glu-C18 diacid])AAHDFVEWLLNGGPSSGAPPPS-NH2 [Compound 3]"
result = "1.02 nM"

[[record]]
binder = "H[Aib]QGTFTSDK([PEG2′-PEG2′-Glu-C18 diacid])SKYLD[Aib]RRAQDFVQWLLDGGPSSGAPPPS-NH2 [Compound 22]"
result = "0.32 nM"

[[record]]
binder = "H[dS]QGTFTSDYSKYLDEKAAK([PEG2′-PEG2′-Glu-Palmitoyl])EFIEWLLNGGPSSGAPPPS-NH2 [Compound 24]"
result = "0.58 nM"

[[record]]
binder = "H[dS]QGTFTSDYSKYLDEKAAK([PEG2′-PEG2′-Glu-C18 diacid])EFIEWLLNGGPSSGAPPPS-NH2 [Compound 4]"
result = "0.39 nM"

[[record]]
binder = "H[dS]QGTFTSDK([PEG2′-PEG2′-Glu-Palmitoyl])SKYLD[Aib]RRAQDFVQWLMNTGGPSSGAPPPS-NH2 [Compound 7]"
result = "0.34 nM"

